FYI, the data here is from ChEMBL document CHEMBL4831522.

molecular target: Rhodesain (Trypanosoma brucei rhodesiense); assay: Inhibition of recombinant Trypanosoma brucei rhodesiense MVAT4 rhodesain expressed in Pichia pastoris at 100 uM using Z-FR-AMC as substrate by fluorometry relative to control
measure-name: inhibition (%)

Below, each entry is followed by its recorded inhibition result.
- smiles-notation: "O=C(Nc1ccccc1)c1ccc(Nc2nc(NCCN3CCOCC3)c3ccccc3n2)cc1"
  unit-annotation: "%"
  inhibition: 29
- smiles-notation: "OCCCNc1nc(Nc2ccc(Cl)cc2)nc2ccccc12"
  unit-annotation: "%"
  inhibition: 63
- smiles-notation: "O=C(c1ccc(Nc2nc(NCCCO)c3ccccc3n2)cc1)N1CCOCC1"
  unit-annotation: "%"
  inhibition: 62
- smiles-notation: "O=C(c1ccc(Nc2nc(NCc3ccccc3)c3ccccc3n2)cc1)N1CCOCC1"
  unit-annotation: "%"
  inhibition: 7

(1) Cn1cnc2c(NCc3ccccc3)nc(Nc3ccccc3)nc21
(2) Cn1cnc2c(NCc3ccccc3)nc(Nc3ccc(Cl)cc3)nc21
(3) O=C(c1ccc(Nc2nc(NCCN3CCOCC3)c3ccccc3n2)cc1)N1CCOCC1
## Task Descending sort on inhibition required. Provide the ranking by listing each label in its place in the requested order.
## Result 3, 1, 2

###

molecular target: Cruzipain (Trypanosoma cruzi); assay: Inhibition of recombinant Trypanosoma cruzi cruzain using Z-FR-AMC as substrate and compound-enzyme complex preincubated for 5 mins in presence of 0.01% Triton-X100 by fluorometry relative to control
Sequence (P25779 whole entry): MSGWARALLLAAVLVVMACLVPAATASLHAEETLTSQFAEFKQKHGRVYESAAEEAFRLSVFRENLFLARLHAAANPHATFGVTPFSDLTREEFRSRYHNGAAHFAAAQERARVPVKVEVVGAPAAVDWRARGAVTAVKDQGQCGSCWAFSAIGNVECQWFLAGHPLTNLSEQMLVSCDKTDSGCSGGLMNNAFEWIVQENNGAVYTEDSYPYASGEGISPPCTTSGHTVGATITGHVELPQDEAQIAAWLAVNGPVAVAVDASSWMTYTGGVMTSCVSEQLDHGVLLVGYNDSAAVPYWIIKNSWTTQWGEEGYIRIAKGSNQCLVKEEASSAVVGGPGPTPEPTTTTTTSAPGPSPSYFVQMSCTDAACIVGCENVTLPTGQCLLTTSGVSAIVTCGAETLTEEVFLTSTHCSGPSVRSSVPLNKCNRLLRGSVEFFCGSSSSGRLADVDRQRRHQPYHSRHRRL
measure-name: inhibition (%)

Sample records with inhibition:
- smiles-notation: "Oc1ccc(Nc2nc(NCc3ccccc3)c3ccccc3n2)cc1"
  inhibition, %: 56
- smiles-notation: "c1ccc(CNc2nc(Nc3ccccc3)nc3ccccc23)cc1"
  inhibition, %: 50
- smiles-notation: "Oc1cccc(Nc2nc(NCc3ccccc3)c3ccccc3n2)c1"
  inhibition, %: 54
- smiles-notation: "O=C(Nc1ccccc1)c1ccc(Nc2nc(NCc3ccccc3)c3ccccc3n2)cc1"
  inhibition, %: 54

(1) OCCCNc1nc(Nc2ccc(Cl)cc2)nc2ccccc12
(2) O=C(c1ccc(Nc2nc(NCCCO)c3ccccc3n2)cc1)N1CCOCC1
(3) c1ccc(Nc2nc(Nc3ccccc3)c3ccccc3n2)cc1
## Task Order the records by inhibition, with each subsequent value no larger than the one before. Write out the labels following the order that was asked for.
## Result 3, 2, 1
(3: 84%, 2: 53%, 1: 36%)

###

biological target: Rhodesain (Trypanosoma brucei rhodesiense, UniProt Q95PM0); test: Inhibition of recombinant Trypanosoma brucei rhodesiense MVAT4 rhodesain expressed in Pichia pastoris using Z-FR-AMC as substrate by fluorometry
Sequence (Q95PM0 whole entry): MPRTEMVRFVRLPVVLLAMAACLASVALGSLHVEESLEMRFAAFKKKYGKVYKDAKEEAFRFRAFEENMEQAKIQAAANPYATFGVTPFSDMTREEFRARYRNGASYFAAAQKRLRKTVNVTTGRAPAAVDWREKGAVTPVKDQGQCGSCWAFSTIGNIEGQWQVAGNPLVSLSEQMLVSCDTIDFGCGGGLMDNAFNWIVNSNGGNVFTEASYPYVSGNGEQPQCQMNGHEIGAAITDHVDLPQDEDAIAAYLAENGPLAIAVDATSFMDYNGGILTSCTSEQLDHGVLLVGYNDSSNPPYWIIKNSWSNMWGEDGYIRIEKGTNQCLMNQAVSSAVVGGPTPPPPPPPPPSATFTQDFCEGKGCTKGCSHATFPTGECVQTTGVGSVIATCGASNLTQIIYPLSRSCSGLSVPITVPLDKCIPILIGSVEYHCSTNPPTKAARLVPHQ
Measured pIC50 of individual entries
Expect pIC50 as a plain number equal to -log10 of the molar concentration.

## Task So what does the record say about pIC50 for c1ccc(CNc2nc(Nc3nccs3)nc3ccccc23)cc1 ?
## Result 4.90

## Task Which pIC50 is reported for this compound? c1ccc(CNc2nc(Nc3ccccc3)nc3ccccc23)cc1
## Result 4.76

## Task // query pIC50 value for entry Oc1cccc(Nc2nc(NCc3ccccc3)c3ccccc3n2)c1
## Result 4.59

###

We begin with a simple list: items and their reported CC50.
experiment: Cytotoxicity against mouse C2C12 cells; type: cell-based

See these solved cases before continuing.
- smiles-notation: "c1ccc(CNc2nc(Nc3nccs3)nc3ccccc23)cc1"
  CC50: "> 10 µM"
- smiles-notation: "O=C(Nc1ccccc1)c1ccc(Nc2nc(NCCN3CCOCC3)c3ccccc3n2)cc1"
  CC50: "> 10 µM"
- smiles-notation: "c1ccc(CNc2ccnc(Nc3ccccc3)n2)cc1"
  CC50: "> 10 µM"
- smiles-notation: "OCCCNc1nc(NCCN2CCOCC2)c2ccccc2n1"
  CC50: "> 10 µM"
- smiles-notation: "O=C(c1ccc(Nc2nc(NCCCO)c3ccccc3n2)cc1)N1CCOCC1"
  CC50: "> 10 µM"

Below: the item to evaluate.
## Task Look up CC50 for this compound: OCCCNc1nc(Nc2cccc(F)c2)c2ccccc2n1
## Result > 10 µM

###

target: UniProt:P25779; experiment: Inhibition of recombinant Trypanosoma cruzi cruzain using Z-FR-AMC as substrate by fluorometry
measure-name: IC50 (µM)

Examples with their reported IC50 follow.
- smiles-notation: "c1ccc(CNc2nc(Nc3ccccc3)nc3ccccc23)cc1"
  IC50 / µM: 8
- smiles-notation: "Oc1ccc(Nc2nc(NCc3ccccc3)c3ccccc3n2)cc1"
  IC50 / µM: 18
- smiles-notation: "O=C(c1ccc(Nc2nc(NCc3ccccc3)c3ccccc3n2)cc1)N1CCOCC1"
  IC50 / µM: 7
- smiles-notation: "CC(C)C[C@H](NC(=O)[C@@H]1O[C@H]1C(=O)O)C(=O)NCCCCN=C(N)N"
  IC50 / µM: 0.028

(P) O=C(c1ccc(Nc2nc(NCCN3CCOCC3)c3ccccc3n2)cc1)N1CCOCC1
(Q) OCCCNc1nc(Nc2ccc(Cl)cc2)nc2ccccc12
## Task Input pair: P , Q . Output: entry with lower IC50. Provide the label of your selected option as the answer.
## Result Q
(Q: 7.3 µM, P: 13.5 µM)

###

target: Cruzipain (Trypanosoma cruzi) (UniProt P25779); test: Inhibition of recombinant Trypanosoma cruzi cruzain using Z-FR-AMC as substrate and compound-enzyme complex preincubated for 5 mins in presence of 0.1% Triton-X100 by fluorometry relative to control
Sequence (P25779 123-467 limits assumed): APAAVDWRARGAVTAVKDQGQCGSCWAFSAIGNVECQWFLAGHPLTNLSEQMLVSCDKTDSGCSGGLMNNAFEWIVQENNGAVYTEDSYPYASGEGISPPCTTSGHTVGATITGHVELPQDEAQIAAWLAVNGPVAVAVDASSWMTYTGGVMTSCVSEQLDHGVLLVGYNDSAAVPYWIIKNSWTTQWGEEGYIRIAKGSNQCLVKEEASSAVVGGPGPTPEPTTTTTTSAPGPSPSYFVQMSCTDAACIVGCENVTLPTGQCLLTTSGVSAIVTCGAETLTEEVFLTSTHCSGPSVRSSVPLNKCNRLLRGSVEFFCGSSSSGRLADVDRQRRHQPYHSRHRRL
// inhibition lookup, one value per entry
Enter your answer as a number in %; do not include the unit.

- smiles-notation: "c1ccc(CNc2nc(Nc3nccs3)nc3ccccc23)cc1"
  inhibition, %: 22
- smiles-notation: "Clc1ccc(Nc2nc(NCc3ccccc3)c3ccccc3n2)cc1"
  inhibition, %: 1

Next, consider the following compound.
## Task Given the compound c1ccc(Nc2nc(Nc3ccccc3)c3ccccc3n2)cc1 , what is its reported inhibition?
## Result 81

###

target: Cruzipain (Trypanosoma cruzi) (UniProt P25779); assay: Inhibition of recombinant Trypanosoma cruzi cruzain using Z-FR-AMC as substrate when compound was preincubated for 5 mins in presence of BSA and 0.001% Triton-X100 followed by further incubation for 5 mins in presence of enzyme relative to control; conditions: time 10.0 min
measure-name: inhibition (%)

Reference set, count: 3
- smiles-notation: "O=C(c1ccc(Nc2nc(NCCCO)c3ccccc3n2)cc1)N1CCOCC1"
  measure-name: "inhibition"
  unit-annotation: "%"
  meas-value: 51
- smiles-notation: "Oc1cccc(Nc2nc(NCc3ccccc3)c3ccccc3n2)c1"
  measure-name: "inhibition"
  unit-annotation: "%"
  meas-value: 44
- smiles-notation: "c1ccc(Nc2nc(Nc3ccccc3)c3ccccc3n2)cc1"
  measure-name: "inhibition"
  unit-annotation: "%"
  meas-value: 62

(A) COc1ccc(Nc2nc(NCc3ccccc3)c3ccccc3n2)cc1
(B) OCCCNc1nc(Nc2ccc(Cl)cc2)nc2ccccc12
## Task When their inhibition values are compared, which is larger, A or B ? To answer, give the label that identifies your chosen option.
## Result A
(A: 65%, B: 35%)

###

tested on: Trypanosoma cruzi; test: Trypanocidal activity against amastigotes form of Trypanosoma cruzi CA-I/72 infected in mouse C2C12 cells assessed as inhibition of parasite replication incubated for 48 hrs by DAPI staining based microscopic analysis; assay type: functional, organism-based; settings: CA-I/72, C2C12, 48 h
As shown below, each of these compounds has a reported pEC50 value.
# pEC50 = -log10(concentration in molar units)

- compound: "Clc1ccc(Nc2nc(NCc3ccccc3)c3ccccc3n2)cc1"
  target: "Trypanosoma cruzi"
  pEC50: 6.30

## Task So what does the record say about pEC50 for c1ccc(CNc2nc(Nc3ccccc3)nc3ccccc23)cc1 ?
## Result 7.33

## Task Can you share its pEC50? I mean this compound: OCCCNc1nc(Nc2ccc(Cl)cc2)nc2ccccc12
## Result 6.60

## Task Fill blank: measured pEC50 of the compound O=C(Nc1ccccc1)c1ccc(Nc2nc(NCc3ccccc3)c3ccccc3n2)cc1 is ____.
## Result 5.74

## Task Any idea what pEC50 was measured for c1ccc(CNc2ccnc(Nc3ccccc3)n2)cc1 ?
## Result 5.15

###

target: Cruzipain (Trypanosoma cruzi); experiment: Inhibition of recombinant Trypanosoma cruzi cruzain at 100 uM using Z-FR-AMC as substrate by fluorometry relative to control
measure-name: inhibition (%)

- smiles-notation: "c1ccc(CNc2nc(Nc3ccccn3)nc3ccccc23)cc1"
  inhibition / %: 100
- smiles-notation: "O=C(Nc1ccccc1)c1ccc(Nc2nc(NCCN3CCOCC3)c3ccccc3n2)cc1"
  inhibition / %: 84
- smiles-notation: "OCCCNc1nc(NCc2ccccc2)c2ccccc2n1"
  inhibition / %: 100
- smiles-notation: "c1ccc(CNc2nc(Nc3nccs3)nc3ccccc23)cc1"
  inhibition / %: 100

###

target: UniProt P25779; assay: Inhibition of recombinant Trypanosoma cruzi cruzain using Z-FR-AMC as substrate and compound-enzyme complex preincubated for 5 mins in presence of 0.01% Triton-X100 by fluorometry relative to control
inhibition reference
The figure you give is taken to be in %; do not add the unit.

Completed entries (count: 3):
- smiles-notation: "Clc1ccc(Nc2nc(NCc3ccccc3)c3ccccc3n2)cc1"
  target: "UniProt P25779"
  unit-annotation: "%"
  inhibition: 48
- smiles-notation: "O=C(c1ccc(Nc2nc(NCc3ccccc3)c3ccccc3n2)cc1)N1CCOCC1"
  target: "UniProt P25779"
  unit-annotation: "%"
  inhibition: 53
- smiles-notation: "COc1ccc(Nc2nc(NCc3ccccc3)c3ccccc3n2)cc1"
  target: "UniProt P25779"
  unit-annotation: "%"
  inhibition: 50

// below: inhibition requested for another compound
## Task I have this compound here, c1ccc(CNc2nc(Nc3nccs3)nc3ccccc23)cc1 , and I need its recorded inhibition.
## Result 60
